# Tested on: HCC-2998 colon
# ASSAY_METHOD_TEXT: NCI-60 one-dose screen, 48 h (100 = growth as untreated, 0 = no growth, -100 = all killed)
# ASSAY_CONDITIONS: 10 µM unless noted
Compounds without any hit were thinned out: in the full panel of roughly 83,000, 20% have a hit.
PROPERTY: growth (%)
Record the value in %, omitting the unit from your answer.

Consider the following illustrative entries.
COc1ccc(C(=O)c2cc(F)c(F)c(OC)c2F)cc1OC(=O)CCl : 79.5
COc1cc(F)c(-c2nc3c(C)cccc3n2Cc2c(F)cccc2F)c(F)c1 : 82.1
Cn1c2c(c3ccc(-c4ccn[nH]4)cc3c1=O)C(=O)c1ccccc1-2 : 79.8

Please look at the following compound next.
## Task // returns reported growth for input CCOC(=O)C(=Cc1c(-c2ccccc2)[nH]c2ccccc12)C(=O)OCC
## Result 80.7
